- measurementTarget: human CH24H (Homo sapiens)
- Construct: Using Full-Length Mammalian Gene Collection No. 4819975 (Invitrogen) as a template; made in house; host or cells: FreeStyle 293-F cells (transient transfection with pcDNA3.1(+)/hCH24H); crude lysate supernatant
- Sequence (Q9Y6A2 whole entry): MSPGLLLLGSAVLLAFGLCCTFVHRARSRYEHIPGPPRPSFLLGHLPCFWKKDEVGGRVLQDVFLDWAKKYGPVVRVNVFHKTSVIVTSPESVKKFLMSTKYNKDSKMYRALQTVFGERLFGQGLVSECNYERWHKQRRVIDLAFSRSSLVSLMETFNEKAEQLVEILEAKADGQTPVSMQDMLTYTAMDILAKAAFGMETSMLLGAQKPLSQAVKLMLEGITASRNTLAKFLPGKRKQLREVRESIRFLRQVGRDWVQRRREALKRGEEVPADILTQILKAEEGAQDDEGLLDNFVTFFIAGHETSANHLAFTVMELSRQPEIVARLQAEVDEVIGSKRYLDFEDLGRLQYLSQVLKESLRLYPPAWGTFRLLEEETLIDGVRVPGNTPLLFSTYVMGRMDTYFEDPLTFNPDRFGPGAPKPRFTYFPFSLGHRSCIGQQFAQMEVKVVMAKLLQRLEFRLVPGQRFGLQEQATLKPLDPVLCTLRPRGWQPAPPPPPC
- protocolText: Measurement of CH24H inhibitory activity (24-HC produced from [14C] cholesterol by human CH24H lysate)
- Assay type: biochemical
- conditionInfo: 1 μM test compound, [14C] cholesterol 15 μM, 37° C., 5 hr, read-out: Inhibitory rate (%) at 1 μM
- Experimental: The expression of human CH24H was performed using FreeStyle 293 Expression System (Invitrogen). […] For the measurement of CH24H inhibitory activity, using the human CH24H lysate prepared in Experimental Example 2, the amount of 24-HC produced from cholesterol by catalysis of CH24H was measured in the presence of a test compound, and the amount was compared with that in the absence of the test compound. […]
measurementLabel: inhibition at 1 µM (%)
// note: answer is a bare numeric in %

Return value of inhibition at 1 µM for input O=C(c1ccc(F)cc1-c1ccncn1)N1CCC(O)(Cc2ccccn2)CC1 , no commentary. 82

Further cases:
Return value of inhibition at 1 µM for input O=C(c1cccnc1-c1ccncn1)N1CCC(O)(Cc2ccc(F)cc2F)CC1 , no commentary. 95

Return value of inhibition at 1 µM for input COC1(Cc2ccccc2)CCN(C(=O)c2cc(C)ccc2-c2ccncc2)CC1 , no commentary. 83

Return value of inhibition at 1 µM for input O=C(c1cccnc1-c1ccncc1)N1CCC(O)(Cc2ccccc2)CC1 , no commentary. 95

Return value of inhibition at 1 µM for input O=C(c1cccnc1-c1ccncn1)N1CCC(O)(Cc2ccc(F)cc2)CC1 , no commentary. 88

Return value of inhibition at 1 µM for input Cc1nc(-c2ccncn2)c(C(=O)N2CCC(O)(Cc3ccccc3)CC2)s1 , no commentary. 82

Return value of inhibition at 1 µM for input O=C(c1cccnc1-c1ccncc1)N1CCC(O)(Cc2ccc(F)c(F)c2)CC1 , no commentary. 89

* * *

- measurementTarget: human CH24H (Homo sapiens)
- Construct: Using Full-Length Mammalian Gene Collection No. 4819975 (Invitrogen) as a template; made in house; host or cells: FreeStyle 293-F cells (transient transfection with pcDNA3.1(+)/hCH24H); crude lysate supernatant
- protocolText: Measurement of CH24H inhibitory activity (24-HC produced from [14C] cholesterol by human CH24H lysate)
- Format: biochemical
- conditionInfo: 1 μM test compound, [14C] cholesterol 15 μM, 37° C., 5 hr, read-out: Inhibitory rate (%) at 1 μM
- Protocol: The expression of human CH24H was performed using FreeStyle 293 Expression System (Invitrogen). […] For the measurement of CH24H inhibitory activity, using the human CH24H lysate prepared in Experimental Example 2, the amount of 24-HC produced from cholesterol by catalysis of CH24H was measured in the presence of a test compound, and the amount was compared with that in the absence of the test compound. […]
Threshold rule: inhibition at 1 µM greater than or equal to 90% is true; below that, false.

The following molecules have reported results that may help.
Hello, I need to know if O=C(c1ncsc1-c1ccncc1)N1CCC(O)(Cc2ccccc2)CC1 has measured inhibition at 1 µM not below 90%. Thanks! true

Hello, I need to know if O=C(c1c(C(F)(F)F)n[nH]c1-c1ccncc1)N1CCC(O)(Cc2ccccc2)CC1 has measured inhibition at 1 µM not below 90%. Thanks! true

Hello, I need to know if COc1ccc(CC2(O)CCN(C(=O)c3cccnc3-c3ccncc3)CC2)cc1 has measured inhibition at 1 µM not below 90%. Thanks! false

Hello, I need to know if Cc1ccc(-c2ccncc2)c(C(=O)N2CCC(O)(C(C)C)CC2)c1 has measured inhibition at 1 µM not below 90%. Thanks! false

Hello, I need to know if O=C(c1ccccc1-c1cnco1)N1CCC(O)(Cc2ccccc2)CC1 has measured inhibition at 1 µM not below 90%. Thanks! false

Hello, I need to know if O=C(c1c(-c2ccncc2)ccc2c1OCO2)N1CCC(O)(Cc2ccccc2)CC1 has measured inhibition at 1 µM not below 90%. Thanks! false

# next molecule below
Hello, I need to know if O=C(c1cc(F)ccc1-c1ccncn1)N1CCC(O)(Cc2ccccn2)CC1 has measured inhibition at 1 µM not below 90%. Thanks! false
